# experiment.summary: qHTS of pediatric cancer cell lines to identify multiple opportunities for drug repurposing: Confirmatory screen for BT-37 cells (AID 1347117);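 note: viability measured after 48 h of compound exposure; nearly all actives have a fitted effect of over 55% in size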
# measurement.conditions: BT-37 pediatric cancer cells, viability
Results filed as inconclusive are left out. Activity calls are given as the source filed them. Calls come from the whole dose curve; as a rule, active = well fitted cell-killing curve with a large enough effect; inconclusive = small, poorly fitted or top-dose-only effect; inactive = no such curve, though single readings can be large or run the other way. Non-standard residues stand in square brackets, D forms with d. Residues, ends and D or L forms follow the SMILES beside them. *: point of attachment. Nva = CCC[C@H](N)C(=O)O; Cbz = O=C(OCc1ccccc1)*
Thanks in advance; please answer with one of these: true = active, false = inactive

compound: CC(C=CC1=C(C)CCCC1(C)C)=CC=CC(C)=CC(=O)Nc1ccc(O)cc1
assigned.class: true

compound: COc1ccc(S(=O)(=O)Nc2cccnc2Nc2ccc(O)cc2)cc1
assigned.class: true

*Q* Call for entry CC[C@]12C=CCN3CC[C@@]4(c5cc([C@@]6(C(=O)OC)C[C@H]7C[C@@H](C(C)(F)F)CN(Cc8c6[nH]c6ccccc86)C7)c(OC)cc5N(C)[C@H]4[C@@](O)(C(=O)OC)[C@H]1OC(C)=O)[C@@H]32 :
*A* false

*Q* Same question, Cc1ncc(-c2ccnc(Nc3ccc(S(C)(=O)=O)cc3)n2)n1C(C)C this time
*A* true

*Q* Same question, O=C1NC(=O)[C@@H](c2cn3c4c(cccc24)CCC3)[C@H]1c1c[nH]c2ccccc12 this time
*A* true

*Q* Same question, COc1cc(O)c2c(c1)C1OC1C[C@H](O)[C@H](O)C(=O)C=CC[C@H](C)OC2=O (stereo partly drawn) this time
*A* true

*Q* Same question, CCC[C@@H](C=O)NC(=O)[C@H](CC(C)C)NC(=O)[C@H](CC(C)C)NC(=O)OCc1ccccc1 (Cbz-Leu-Leu-[Nva]-aldehyde) this time
*A* true

*Q* Same question, Nc1nc2c(c(=O)[nH]1)N(C=O)[C@H](CNc1ccc(C(=O)N[C@@H](CCC(=O)O)C(=O)O)cc1)CN2 this time
*A* false

*Q* Same question, Cc1cnc(Nc2ccc(CN3CCOCC3)cc2)nc1Nc1cccc(S(=O)(=O)NC(C)(C)C)c1 this time
*A* true

*Q* Same question, CC(=O)SCC(Cc1ccccc1)C(=O)NCC(=O)OCc1ccccc1 (stereo not drawn) this time
*A* false

*Q* Same question, COc1cccc2c1C(=O)c1c(O)c3c(c(O)c1C2=O)C[C@@](O)(C(=O)CO)C[C@H]3O[C@H]1C[C@H](N)[C@H](O)[C@H](C)O1 this time
*A* true

*Q* Same question, CN(CC(=O)N(Cc1ccc(C2CCCCC2)cc1)c1ccc(C(=O)O)c(O)c1)S(=O)(=O)c1c(F)c(F)c(F)c(F)c1F this time
*A* true

*Q* Same question, COc1cc(C[C@@H](CO)[C@H](CO)Cc2ccc(O)c(OC)c2)ccc1O this time
*A* false

*Q* Same question, CCOC(=O)N1CCN([N+]([O-])=NOc2ccc([N+](=O)[O-])cc2C#N)CC1 this time
*A* true

*Q* Same question, CC(C)C[C@H](NC(=O)CNC(=O)c1cc(Cl)ccc1Cl)B1OC(=O)CC(CC(=O)O)(C(=O)O)O1 (stereo partly drawn) this time
*A* true

*Q* Same question, CC(C)C[C@H](NC(=O)[C@@H](NC(=O)c1cccc(-c2ccccc2)n1)[C@@H](C)O)B(O)O this time
*A* true

*Q* Same question, C[C@H](NCc1ccc2c(c1)nc(NC(=O)c1ccc(-c3cn[nH]c3)s1)n2CCc1ccccc1)C(C)(C)C this time
*A* true

*Q* Same question, COc1ccc(C=Cc2cc(OC)c(OC)c(OC)c2)cc1NC(=O)[C@H](N)CO this time
*A* true
